B1: Syntaxin-binding protein 4, residues 493 to 538; numbered along this chain, Q6ZWJ1 (parent)
chain: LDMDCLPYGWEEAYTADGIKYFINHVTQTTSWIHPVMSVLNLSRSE

Variants of: B1
method: abundance fitness (aPCA) (normalised: wild type 0, dead -1); higher = more abundant; growth selection in yeast, the domain comes from the species named
experimentalParameters: Homo sapiens
Quick list: abundance fitness per entry.
Note: the reply should be a number with no unit written.

Input: Requested field: abundance fitness. Item: E12A
Output: -0.767
